Values were extracted from PubChem BioAssay.

Test: COS7 lysate on small-molecule microarray, probe aHis, 635 nm (AID 1123);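 note: z-score combines 667nm fluorescence intensity with signal-to-noise per printed compound spot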
Conditions: COS7 cell lysate, fluorescence, higher = more signal
// not met strictly below 2 in composite z-score; met otherwise

molecule=CCCC[C@@H]1C[C@H]1[C@@H](NC(=O)c1ccco1)c1ccccc1C(F)(F)F assigned_class="not met"
molecule="N#Cc1ccc(NN2C(C(O)C(c3ccccc3)c3ccccc3)C=CC3C(=O)N(c4ccccc4)C(=O)C32)cc1 (configuration not stated)" assigned_class=met
molecule=O=C(c1ccccc1)N1Cc2ccccc2C[C@@]2(COC(c3ccc(OCCCO)cc3)=N2)C1=O assigned_class=met

Record COCCOC(=O)N1C(=O)[C@@]2(c3cc(C#CCC(C(=O)OC)C(=O)OC)ccc31)[C@H](c1ccccc1OCCO)N1[C@H](c3ccccc3)[C@H](c3ccccc3)OC(=O)[C@H]1[C@@H]2C(=O)NC[C@H](O)c1ccccc1 ; criterion: composite z-score no lower than 2. Met?
not met

Record O=C(c1ccccc1)N1C(=O)[C@]2(COC(c3ccc(OCCCO)cc3)=N2)Cc2ccccc21 ; criterion: composite z-score no lower than 2. Met?
met

Record CN1C(=O)C2C=CC(C(O)c3ccccc3)N(N(c3ccccc3)c3ccccc3)C2C1=O (configuration not stated) ; criterion: composite z-score no lower than 2. Met?
not met

* * *

Target: Left-right determination factor 2 (Homo sapiens) (UniProt O00292)
Sequence (O00292 whole entry, looked up): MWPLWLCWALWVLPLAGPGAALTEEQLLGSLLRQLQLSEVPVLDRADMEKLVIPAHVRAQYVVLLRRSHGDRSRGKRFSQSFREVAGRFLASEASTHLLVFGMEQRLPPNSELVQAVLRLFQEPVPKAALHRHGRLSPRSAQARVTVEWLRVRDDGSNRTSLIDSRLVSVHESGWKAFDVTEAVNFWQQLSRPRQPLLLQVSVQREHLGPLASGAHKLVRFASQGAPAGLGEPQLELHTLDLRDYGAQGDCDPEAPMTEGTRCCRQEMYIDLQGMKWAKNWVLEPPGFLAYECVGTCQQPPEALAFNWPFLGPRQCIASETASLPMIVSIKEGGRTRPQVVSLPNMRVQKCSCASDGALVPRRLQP
Assay: LEFTY2 binders on small-molecule microarrays, primary screen, biochemical, small-molecule microarray, 635 nm fluorescence scan (AID 1110)
Conditions: LEFTY2 binding, higher = more signal
Attribute Measured: composite z-score

Worked set:
compound=C[C@@]1([C@@H](NC(=O)c2ccc(-c3ccccc3)cc2)c2ccc(Cl)cc2)C[C@H]1C1CCCCC1 attribute_measured="composite z-score" val=0.279
compound=COC(=O)[C@@]1(Cc2ccc(OC)cc2)[C@H]2c3cc(C(=O)N4CCCC4)n(Cc4ccc(O)c(OC)c4)c3C[C@H]2CN1C(=O)c1ccccc1 attribute_measured="composite z-score" val=-0.114
compound="COc1ccc(C(O)C2C=CC3C(=O)N(Cc4ccccc4)C(=O)C3N2n2cnnc2)cc1OCc1ccccc1 (stereo not drawn)" attribute_measured="composite z-score" val=-0.355
compound=C=C(COC)/C(=C/C[C@H](OC(C)=O)c1ccc(CO)o1)c1cc(C(=O)OC)ccc1OC attribute_measured="composite z-score" val=-0.151
compound=CN(C)CCCCCCNC(=O)[C@H]1C[C@H]2C(=O)N[C@@H](CCCCN)C(=O)N2[C@H]1c1cccc(OCCO)c1 attribute_measured="composite z-score" val=1.71
compound=CN(C)CCCC[C@@H]1NC(=O)[C@H]2C[C@@H](C(=O)NCCCCCCN)[C@@H](c3ccc(O)cc3)N2C1=O attribute_measured="composite z-score" val=1.48
compound=NC(=O)NCC#Cc1ccc2c(c1)[C@]1(C(=O)N2)[C@H](c2ccccc2OCCO)N2[C@H](c3ccccc3)[C@H](c3ccccc3)OC(=O)[C@H]2[C@@H]1C(=O)Nc1nc2ccccc2s1 attribute_measured="composite z-score" val=0.0464
compound=COc1ccc(C#Cc2ccc3c(c2)[C@]2(C(=O)N3)[C@H](C(=O)NC[C@H](O)c3ccccc3)[C@H]3C(=O)O[C@H](c4ccccc4)[C@H](c4ccccc4)N3[C@@H]2c2ccc(O)cc2)cc1 attribute_measured="composite z-score" val=0.559
compound=C=CCOC(=O)[C@H]1[C@@H]2C(=O)O[C@@H](c3ccccc3)[C@@H](c3ccccc3)N2[C@@H](c2ccc(OCCOC(=O)[C@@H]3C[C@@H]4C(=O)N[C@@H](CCCCNC(C)=O)C(=O)N4[C@@H]3c3ccc(O)cc3)cc2)[C@]12C(=O)Nc1ccccc12 attribute_measured="composite z-score" val=0.515
compound=CCCC[C@@H]1C[C@H]1[C@@H](NC(=O)C(C)(C)C)c1ccc(C(F)(F)F)cc1 attribute_measured="composite z-score" val=-1.61

Now, please, on to the next compound.
Consider the compound shown here: C=CCOC(=O)[C@H]1[C@@H]2C(=O)O[C@@H](c3ccccc3)[C@@H](c3ccccc3)N2[C@@H](c2ccc(OCCOC(=O)[C@H]3C[C@H]4C(=O)N[C@@H](CCCC[N+](C)(C)C)C(=O)N4[C@H]3c3ccc(O)cc3)cc2)[C@]12C(=O)Nc1ccc(I)cc12 What is its recorded composite z-score?
0.853

* * *

Target: Fibroblast growth factor 2 (Homo sapiens)
Assay: FGF2 binders on small-molecule microarrays, primary screen, biochemical, small-molecule microarray, 635/667 nm fluorescence (AID 1133)
Settings: small-molecule microarray binding, FGF2, fluorescence 635/667; higher = more signal
// -1 strictly below 0.1 in composite z-score; 1 otherwise

Completed entries (count: 6):
molecule="N#Cc1ccc(NN2C(C(O)C(c3ccccc3)c3ccccc3)C=CC3C(=O)N(c4ccccc4)C(=O)C32)cc1 (stereo not drawn)" assigned_class=-1
molecule=O=C1C[C@@](C(=O)NCCN2CCOCC2)(c2ccc([N+](=O)[O-])cc2)[C@@H](c2ccc(CO)cc2)N1CC12CC3CC(CC(C3)C1)C2 assigned_class=1
molecule="CC(C)C[C@@H]1NC(=O)[C@H](C(C)C)NC(=O)[C@@]23C(=O)N[C@@H](Cc4ccccc4)C2[C@H](C)[C@@]2(C)O[C@H]2C3/C=C/CC/C=C/CNC1=O (stereo partly drawn)" assigned_class=1
molecule="CC(C)C(CO)N1C(=O)[C@@H]2C3C(=O)OCCC/C=C\\[C@H]3OC23C=CCN(CCN2CCOCC2)C(=O)[C@@H]13 (stereo partly drawn)" assigned_class=1
molecule=COc1cc2c(cc1OC)CN(C(=O)[C@@H]1[C@H]3C(=O)O[C@H](c4ccccc4)[C@H](c4ccccc4)N3[C@H](c3ccc(O)cc3)[C@@]13C(=O)Nc1ccccc13)CC2 assigned_class=1
molecule=O=C1c2ccccc2[C@](Cc2ccccc2I)(C(=O)NCCN2CCOCC2)[C@H](c2ccc(CO)cc2)N1C1CCCCC1 assigned_class=1

Record C=CCC(OC(C)=O)[C@@H]1[C@@H](N(Cc2cccc3ccccc23)C(=O)c2ccc(-c3ccccc3)cc2)c2cc(OCCCO)ccc2N1C(=O)c1ccc2ccccc2c1 (stereo partly drawn) ; criterion: composite z-score no lower than 0.1. Met?
-1

Record CCCC#C[Si](O[C@H](CC)c1cn(Cc2cccc(Cl)c2)nn1)(C(C)C)C(C)C ; criterion: composite z-score no lower than 0.1. Met?
1

* * *

The entries below are paired with their reported z-score.
Test: modulators of HCV replicon luciferase signal, primary screen, HCV replication inhibitor project, Huh7 cells, luciferase reporter (AID 1109);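 note: huh7 hepatoma cells harbouring a luciferase neomycin HCV replicon reporter; luciferase luminescence as measure of HCV replicon replication; test concentration not given here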
Conditions: 48 h, higher = more signal
Please state the value as a number alone, without comment.

Worked set:
compound=CO[C@H]1O[C@H](CO)[C@@H](OC(=O)Nc2ccc(Oc3ccccc3)cc2)[C@H](OC(=O)Nc2ccc3c(c2)OCO3)[C@H]1OC(=O)Nc1ccc2c(c1)OCO2 attribute_measured=z-score val=-0.289
compound=Cc1ccc(S[C@]2(C(=O)NCCCN(C)C)CC(=O)N(Cc3ccccc3C(F)(F)F)[C@@H]2c2ccc(CO)cc2)cc1 attribute_measured=z-score val=-0.767
compound="CCN(CC)c1ccc(N2CC=CC34O[C@@H]5C=CCCOC(=O)C5[C@H]3C(=O)N(CCCCCCO)[C@@H]4C2=O)cc1 (some centres undefined)" attribute_measured=z-score val=0.234

Now, please, on to the next compound.
Consider the compound shown here: C[C@H]1NC(=O)[C@@]23C(=O)N[C@@H](Cc4ccccc4)C2[C@H](C)[C@@]2(C)O[C@H]2C3/C=C/C/C=C\CNC(=O)[C@@H]2CCCN2C1=O (some centres undefined) What is its recorded z-score?
0.534

* * *

System: Neuregulin-1 EGF-like domain
Assay: binders of neuregulin-1 EGF-like domain, primary screen, biochemical, small-molecule microarray, 635 nm fluorescence (AID 1081);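 note: binding of the protein to compounds printed on small-molecule microarray slides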
Details: small-molecule microarray binding, higher = more signal
Attribute Measured: composite z-score

Worked set:
compound=C=C(COC)/C(=C/C[C@@H](OC(C)=O)c1ccc(OCCO)cc1)c1cnc2ccccc2c1 val=0.957
compound="C=CC1(C(=O)OC)CC=C(C(=O)OC)CC1 (stereo not drawn)" val=1.12
compound=COc1ccc([Si](C)(C)[C@@H]2[C@@H](CCO)O[C@]3(C(=O)N(Cc4ccc(N(C=O)c5ccccc5)cc4)c4ccccc43)[C@H]2C)cc1 val=0.565
compound="CCCCC(CC)C(O)C1C=CC2C(=O)N(Cc3ccccc3)C(=O)C2N1n1cnnc1 (stereo not drawn)" val=1.1
compound=C=C[C@H](C)[C@@H](OC(=O)Nc1ccc(OC)cc1)c1ccc(O)c2ccccc12 val=1.27
compound=CCCC[C@@H]1C[C@H]1[C@@H](NC(=O)c1ccco1)c1ccc(-c2ccccc2)cc1 val=1.02

Consider the compound shown here: COC(=O)[C@H](Cc1ccccc1)N1CC2=C[C@@H](C3CC3)n3c(=O)n(C)c(=O)n3[C@H]2[C@@H]1[C@@H](O)Cc1ccccc1 What is its recorded composite z-score?
0.997

Consider the compound shown here: O=C1c2ccccc2[C@](Cc2ccccc2I)(C(=O)NCCN2CCOCC2)[C@H](c2ccc(CO)cc2)N1Cc1ccccc1Cl What is its recorded composite z-score?
1.29
